For each record, write down the corresponding % of cells anti-hIgG APC+.
Molecular target: T1, LILRB2 chimeric receptor on LILRB2 reporter cells (extracellular domain of LILRB2 fused with … (UniProt Q8N423 22-460))
T1 construct: extracellular domain;domain: transmembrane/intracellular domains; associates with DAP12; also called LILRB2-expressing reporter cells
Assay: flow cytometry, LILRB2 reporter cells
Give bare numbers, in %.

Before answering, review these 4 worked examples.
[
  {
    "Binder": "B2-7 (antibody, V domains shown, also called B2-7_HC; B2-7_LC) VH: EVQLVESGGGVVQPGRSLRLSCAASGFTISSYGMHWVRQAPGKGLEWVAVISYDGSNKYYADSVKGRFTISRDNSKNTLYLQMNSLRVEDTAVYYCAKDLLLRYFDWSPKYYYNGMDVWGQGTMVTVSS VL: QSVLTQPPSVSVAPGKTARITCGGNNIGSKSVHWYQQKPGQAPVLVVYDDSDRPSGIPERFSGSNSGNTATLTISRVEAGDEADYYCQVWDSSSDHPGVFGTGTKVTVL",
    "% of cells anti-hIgG APC+ / %": 94.2
  },
  {
    "Binder": "B2-2 (antibody, V domains shown, also called B2-2_HC; B2-2_LC) VH: QVQLVQSGAEVKKPGASVKVSCKASGYTFSDYGFSWVRQAPGQGLEWMGWISGYNGNTNYAQKFQGRVTMTIDASTSTAYMELRSLKSDDTAVYYCARLLLGYYGMDVWGQGTTVTVSS VL: DIVMTQSPSSLSASVGDRVTLTCRASQSIGNYLNWYQQKPGKAPNLLIYAASSLQSGVPSRFSGSGSGTDFTLTISSLQPEDFATYYCQQSFSIPPITFGQGTRLEIK",
    "% of cells anti-hIgG APC+ / %": 0.14
  },
  {
    "Binder": "B2-9 (antibody, human IgG1, V domains shown, also called B2-9_HC; B2-9_LC) VH: QVQLVQSGAEVKKPGASVKVSCKASGYTFTSYGISWVRQAPGQGLEWMGWISAYNGNTNYAQKLQGRVTMTTDTSTSTAYMELRSLRSDDTAVYYCARDGYGMDVWGQGTTVTVSS VL: QSPSSLSASVGDRVTITCRTSHTVNSYLNWYQQEPGKAPKLLIYAASNLQSGVPSRFSGSGSGTDFSLTIHNLQPEDFATYYCQQSYRTPLTFGQGTKVDIK",
    "% of cells anti-hIgG APC+ / %": 0.09
  },
  {
    "Binder": "B2-8 (antibody, V domains shown, also called B2-8_HC; B2-8_LC) VH: QVQLVQSGAEVKKPGSSVKVSCKASGGTFSSYAISWVRQAPGQGLEWMGGIIPIFGTANYAQKFQGRVTITADESTSTAYMELSSLRSEDTAVYYCARVAVADTFFDYWGQGTLVTVSS VL: QPVLTQPASVSGSPGQSITISCTGTSSDVGGYNYVSWYQQHPGKAPKLMIYDVSNRPSGVSNRFSGSKSGNTASLTISGLQAEDEADYYCSSYTSSSTPYVFGTGTKVTVL",
    "% of cells anti-hIgG APC+ / %": 24.8
  }
]

Need % of cells anti-hIgG APC+ for each of these binders.
1. B2-13 (antibody, V domains shown, also called B2-13_HC; B2-13_LC) VH: QVQLVQSGAEVKKPGSSVKVSCKASGGTFSSYAISWVRQAPGQGLEWMGGIIPIFGTANYAQKFQGRVTITADESTSTAYMELSSLRSEDTAVYYCARSDYGDSYFDYWGQGTLVSVSS VL: QAVVTQPASVSGSPGQSVSISCTGTSSDVGGFNYVSWYQQHPGKAPKLMIYDVSNRPSGVSNRFSGSKSGNTASLTISGLQAEDEADYYCSSYTSSTAPYVFGTGTKVTVL
2. B2-1 (antibody, V domains shown, also called B2-1_HC; B2-1_LC) VH: EVQLVQSGAEVKKPGSSVKVSCKASGGTFSSYAISWVRQAPGQGLEWMGGIIPIFGTANYAQKFQGRVTITADKSTSTAYMELSSLRSEDTAVYYCARGNQGDTAFDIWGQGTTVIVSS VL: QSALNQPASVSGSPGQSITISCTGTSSDVGGYNYVSWYQQHPGKAPKLMIYDVSNRPSGVSNRFSGSKSGNTASLTISGLQAEDEADYYCSSYTSSSTPYVFGTGTKVTVL
3. B2-4 (antibody, V domains shown, also called B2-4_HC; B2-4_LC) VH: QVQLVQSGPTVRKPGASVRVSCKASGYPFTSNGMSWVRQAPGQGLEWMGWISTNSGNTNYAQKFQGRVTLTTDTSSTTTYLDLRSLTSDDTAIYYCARDVQYRMDVWGQGTTVTVSS VL: QSVLTQPPSASGTPGQRVTISCSGSRSNIGSNPVNWYQHLPGTAPKLLVYSNNRRPSGVPDRFSGSKSGTSASLSISGLQSEDEGVYYCAAWDDNVHGVFGGGTKVTVL
4. B2-27 (antibody, human IgG1, V domains shown, also called B2-27_HC; B2-27_LC) VH: QVQLVQSGAEVKKPGSSVKVSCKASGGTFSSYAISWVRQAPGQGLEWMGGIIPIFGTANYAQKFQGRVTITADESTSTAYMELSSLRSEDTAVYYCARESYSSSSFDYWGQGTTVSVSS VL: QPVLTQPASVSGSPGQSITISCTGTSSDVGGYNYVSWYQQHPGKAPKLMIYDVSNRPSGVSNRFSGSKSGNSASLTISGLQAEDEADYYCSSYTSSSTPYVFGTGTKVTVL
5. B2-3 (antibody, V domains shown, also called B2-3_HC; B2-3_LC) VH: QVQLVQSGAEVKKPGASVKVSCRTSGYTFSSYGISWVRQAPGQGLEWMGWISGNTGNTKYTPKLQGRVTMTTDTSTSTAYMELRSLRSDDTAVYYCARDRGIAAGRAFDIWGQGTMVTVSS VL: QPVLTQPPSASGTPGQRVTISCSGSSSNIGTNPVNWYQQVPGTGPKLLIYNNNQWPSGVPDRFSGSKSATSASLAIYGLQSGDEAHYYCSSWDDSLSAWVFGGGTKVTVL

Response:
1: 1.23; 2: 1.69; 3: 0.7; 4: 1.1; 5: 0.58

Request: Consider the binder shown here: B2-26 (antibody, V domains shown, also called B2-26_HC; B2-26_LC) VH: QVQLVQSGAEVKKPGASVKVSCKASGYTFTSYGISWVRQAPGQGLEWMGWISAYNGNTNYAQKLQGRVTMTTDTSTSTAYMELRSLRSDDTAVYYCARDRGGWFDPWGQGTLVIVSS VL: QSPSSLSASVGDRVTITCRASQSISNFVNWYQQKPGEVPKLLIYGASSLQSGVPSRFSGSGSGTDFTLTISSLQPEDFATYYCQQGYSVPLTFGGGTTVDIK What is its recorded % of cells anti-hIgG APC+?
Response: 0.12
